Recorded values, source paper PMC8301025.

- ASSAY SYSTEM: CLas GMPS (guanosine 5′-monophosphate synthetase)
- Construct: gene guaA
- Assay type: biochemical, Candidatus Liberibacter asiaticus
EXPERIMENTAL READOUT: Ki (µM)
Reply numerically in µM, unit not repeated.

Q: Which Ki reading was recorded for the compound Nc1nc(=O)c2nc(CNc3ccc(C(=O)N[C@@H](CCC(=O)O)C(=O)O)cc3)cnc2[nH]1 ?
Result: 52

Q: Look up Ki for this compound: CCN(CCCOc1ccc2c(Nc3cc(CC(=O)Nc4cccc(F)c4)n[nH]3)ncnc2c1)CCOP(=O)(O)O
Result: 4.05
